- Method notes: in vitro
- Conditions used: human, hela cells, % viability
Provide the recorded viability at 28.5 h, 10 µM for the entries that follow.
Please state the number and follow it with the unit.

[
  {
    "Compound": "O=C(NC1CCCC1)c1ccc(-n2ccnc2)c(-n2cccc2)c1 [CBK285368]",
    "viability at 28.5 h, 10 µM": "94.1%"
  }
]

Please supply viability at 28.5 h, 10 µM for each of the following items, keeping them in order.
1. O=C(Nc1nnc(-c2ccncc2)o1)c1ccc(Cl)cc1Cl [CBK287433]
2. O=C(CCCOc1ccc(Cl)cc1Cl)Nc1c[nH]c(=O)[nH]c1=O [CBK264235]
3. Cn1c(Cc2ccc(Cl)cc2)nnc1SCc1nc2ccccc2c(=O)n1-c1cccc(C(F)(F)F)c1 [CBK268425]

Key:
1: 82.3%; 2: 113%; 3: 112%
